System: HeLa
experiment: Cytotoxicity against Homo sapiens (human) HeLa cells assessed as cell viability after 24 hr by crystal violet staining
Format: functional, cell-based
attribute.measured: IC50 (mM)
Respond numerically; units are mM and should not be typed.

Task item: For the compound `O=C(O)[C@H](Cc1c[nH]c2ccccc12)N1Cc2ccccc2C1` , what IC50 is on record?
Reply: 8.82

Task item: Repeat for the following compound: `CC(C)C[C@@H](C(=O)O)N1Cc2ccccc2C1`
Reply: 4.3

Task item: Next up: `O=C(O)CN1Cc2ccccc2C1`
Reply: 5.62

Task item: What would you report for `COC(=O)[C@H](Cc1c[nH]c2ccccc12)N1Cc2ccccc2C1` ?
Reply: 8.44

Task item: Then this compound: `COC(=O)CN1Cc2ccccc2C1`
Reply: 3.65

Task item: Likewise for `COC(=O)[C@H](c1ccccc1)N1Cc2ccccc2C1` ?
Reply: 5.32

Task item: Also `COC(=O)[C@H](CC(C)C)N1Cc2ccccc2C1` , if possible.
Reply: 3.16

Task item: Continue with `O=C(O)[C@H](c1ccccc1)N1Cc2ccccc2C1`
Reply: 7.07

----------
experiment: n-octanol-water partition coefficient, log P of the compound by shake-flask method
Format: physicochemical
attribute.measured: logP
Answer field: number only, no words.

Task item: Item under review: `COC(=O)[C@H](Cc1c[nH]c2ccccc12)N1Cc2ccccc2C1` . Reported logP?
Reply: 1.45

Task item: Queued: `COC(=O)[C@H](c1ccccc1)N1Cc2ccccc2C1`
Reply: 1.35

Task item: Can you handle `CC(C)C[C@@H](C(=O)O)N1Cc2ccccc2C1` next?
Reply: 0.114

Task item: Next molecule up: `COC(=O)CN1Cc2ccccc2C1`
Reply: -0.027

Task item: Would you kindly repeat that for `O=C(O)[C@H](c1ccccc1)N1Cc2ccccc2C1` ?
Reply: -0.31

Task item: Input `COC(=O)[C@H](CC(C)C)N1Cc2ccccc2C1`
Reply: 0.065

Task item: Likewise for `O=C(O)[C@H](Cc1c[nH]c2ccccc12)N1Cc2ccccc2C1` ?
Reply: 0.347

Task item: What would you report for `O=C(O)CN1Cc2ccccc2C1` ?
Reply: -0.229
